Attribution: patent US20240415914A1

assay_method_text: Stability of cannabinoid and Vitamin E components of Beverage 2 (AB Red) stored at 8° C. and 21-25° C., LCMSMS over 570 days
test_conditions: 21-25° C., 0 days
Exercise: for every item that follows, state its recorded Stability of Cannabinoids in AB Red.
Numbers only, in µg/mL.

See these solved cases before continuing.
CCCc1cc(O)c2c(c1)OC(C)(C)[C@@H]1CCC(C)=C[C@@H]21 [THCV, delta-9-tetrahydrocannabivarin] :: 3.22
CCCCCc1cc(O)c(C/C=C(\C)CCC=C(C)C)c(O)c1 [CBG, cannabigerol] :: 4.75
CCCCCc1cc(O)c2c(c1)OC(C)(CCC=C(C)C)C=C2 (stereo not drawn) [CBC, cannabichromene] :: 0.29
C=C(C)[C@@H]1CCC(C)=C[C@H]1c1c(O)cc(CCCCC)c(C(=O)O)c1O [CBDA, cannabidiolic acid] :: 1.68

# batch: return Stability of Cannabinoids in AB Red for each of the 5 molecules below
1. CCCCCc1cc(O)c2c(c1)OC(C)(C)[C@@H]1CCC(C)=C[C@@H]21 [D9 THC, delta-9-tetrahydrocannabinol, reference compound]
2. C=C(C)[C@@H]1CCC(C)=C[C@H]1c1c(O)cc(CCC)cc1O [CBDV, cannabidivarin]
3. CCCCCc1cc(O)c2c(c1)OC1(C)CCC3C1C2C3(C)C (stereo not drawn) [CBL, cannabicyclol]
4. CCCCCc1cc(O)c2c(c1)OC(C)(C)c1ccc(C)cc1-2 [CBN, cannabinol]
5. CCCCCc1cc2c(c(O)c1C(=O)O)[C@@H]1C=C(C)CC[C@H]1C(C)(C)O2 [D9 THCA, delta-9-tetrahydrocannabinolic acid]

Given back:
12.9
0.20
0.51
2.81
1.35
